# credit: PubChem BioAssay (Tox21)

- Tested System: Aromatase (Homo sapiens)
- Procedure Details: qHTS assay to identify aromatase inhibitors (AID 743083); note: nearly all actives have a fitted effect of over 55% in size
- Condition Details: MCF-7 aro ERE, testosterone-driven ERE luciferase, 24 h; series mostly up to 70.3 µM
Records with an inconclusive call do not appear. Calls of active or inactive are those of the source. Calls come from the whole dose curve; as a rule, active = well fitted inhibition curve with a large enough effect in the repeat runs; inconclusive = weak or mixed curves; inactive = no such curve, though single readings can be large or run the other way.
Respond using exactly one of the listed classes: active, inactive

Query: // return assay outcome for CC(=O)CC(C)=O
Reply: inactive

Query: # iterate: CCn1cc(C(=O)O)c(=O)c2cc(F)c(N3CCNC(C)C3)c(F)c21 (stereo not drawn)
Reply: inactive

Query: Thanks! And N[C@@H]1CONC1=O ?
Reply: inactive

Query: Try this compound too: CC[C@@H](N)CO
Reply: inactive

Query: Follow-up entry: COc1ccc(CCN2CCC(Nc3nc4ccccc4n3Cc3ccc(F)cc3)CC2)cc1
Reply: active

Query: Now consider O=C1NCC2(CCN(CCc3ccccc3)CC2)O1 .
Reply: inactive

Query: Can you check CCCC(=O)c1ccccc1 next?
Reply: inactive

Query: Next up: CC1=C(C=O)C(C)(C)CC=C1
Reply: inactive

Query: Cool, now CCOc1ccc2c(c1)C(C)=CC(C)(C)N2
Reply: inactive

Query: Record: CCCCCCC(O)CCCCCCCCCCC(=O)O (stereo not drawn)
Reply: inactive

Query: Repeat with CCC(CO)(CO)COCC(CC)(CO)CO
Reply: inactive

Query: Entry to check: NC12CC3CC(CC(C3)C1)C2
Reply: inactive

Query: Do the same for CCN(CC)c1ccc2c(C)cc(=O)oc2c1 please
Reply: inactive

---

- Procedure Details: qHTS assay for small molecules that induce genotoxicity in human embryonic kidney cells expressing luciferase-tagged ATAD5 (AID 651632); note: nearly all actives have a fitted effect of over 15% in size
- Condition Details: HEK293T ATAD5-luciferase induction, 16 h; series mostly up to 83.3 µM
Records with an inconclusive call do not appear. Calls of active or inactive are those of the source. The call rests on the fitted dose curve; in most records, active means well fitted activation curve with a large enough effect in the repeat runs; inconclusive means weak or mixed curves; inactive means no such curve, though single readings can be large or run the other way.
Lab note: assign the record to one of active, inactive

Query: Look up the recorded call for CCn1c2ccccc2c2cc(N)ccc21 in this test.
Reply: inactive

Query: Could you do the same for NCCO , please?
Reply: inactive

Query: Also O=C(Cl)c1cccc(C(=O)Cl)c1 , if possible.
Reply: inactive

Query: What about this compound? COC(=O)[C@H]1[C@H]2C[C@@H]3c4[nH]c5cc(OC)ccc5c4CCN3C[C@H]2C[C@@H](OC(=O)c2cc(OC)c(OC)c(OC)c2)[C@@H]1OC
Reply: inactive

Query: What would you report for CC(C)CCOC(=O)c1ccc(N(C)C)cc1 ?
Reply: active

Query: Okay, and Nc1nc(=S)c2[nH]cnc2[nH]1 ?
Reply: inactive

Query: Can you check O=C(O)CCc1ccccc1 next?
Reply: inactive

Query: What do we get for CC(C)CCCCCCc1ccc(O)cc1 ?
Reply: inactive

Query: Proceed to CCCCCCCCCCCCCC[P+](CCCC)(CCCC)CCCC
Reply: inactive

Query: // next record N[C@@H]1CONC1=O
Reply: inactive

Query: Same lookup for CC1=C(C=O)C(C)(C)CC=C1 , please.
Reply: inactive

Query: How about this compound: OCC(CO)N[C@H]1C[C@](O)(CO)[C@@H](O)[C@H](O)[C@H]1O
Reply: inactive

---

- Procedure Details: qHTS assay to identify small molecule agonists of the estrogen related receptor signaling pathway with the pleiotropic PPARgamma coactivator (PGC) (AID 1224823)
- Condition Details: ERR/PGC reporter cell line, luciferase agonist mode; series mostly up to 46.1 µM
Results filed as inconclusive are left out. The source made the active and inactive calls. The call rests on the fitted dose curve; in most records, active means well fitted activation curve with a large enough effect in the repeat runs; inconclusive means weak or mixed curves; inactive means no such curve, though single readings can be large or run the other way.
Measurement Kind: outcome

molecule=NC(N)=NC(=O)Cc1c(Cl)cccc1Cl result_value=inactive
molecule=Cc1c(O)cccc1C(=O)N[C@@H](CSc1ccccc1)[C@H](O)CN1C[C@H]2CCCC[C@H]2C[C@H]1C(=O)NC(C)(C)C result_value=inactive
molecule="CC(C(O)c1ccc(O)cc1)N1CCC(Cc2ccccc2)CC1 (stereo not drawn)" result_value=inactive
